src = the supplement of paper PMC7877785

Each entry below lists one item and its recorded self-splicing fitness (ln) value.
Test: self-splicing fitness, log relative to wild type (ln ratio); higher = more splicing; Tetrahymena group I intron in knt gene, E. coli kanamycin selection, DiMSum; sequences stand for … in CUCUCU…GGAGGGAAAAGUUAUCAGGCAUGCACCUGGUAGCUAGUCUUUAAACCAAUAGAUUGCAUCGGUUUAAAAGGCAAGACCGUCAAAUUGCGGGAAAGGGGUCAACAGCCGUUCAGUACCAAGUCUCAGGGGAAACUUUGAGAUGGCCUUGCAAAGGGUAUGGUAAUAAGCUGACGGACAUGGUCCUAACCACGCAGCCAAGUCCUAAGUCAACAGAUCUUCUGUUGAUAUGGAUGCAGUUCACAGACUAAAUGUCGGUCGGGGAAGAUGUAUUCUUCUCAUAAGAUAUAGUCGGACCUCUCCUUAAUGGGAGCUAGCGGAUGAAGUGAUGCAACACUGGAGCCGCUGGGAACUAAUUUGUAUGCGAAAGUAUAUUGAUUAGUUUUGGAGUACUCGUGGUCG;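 further: selection with 25 µg/mL kanamycin versus none on LB agar overnight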
Conditions: 37 °C
reported metric: self-splicing fitness (ln)

>  <construct sequence>
UCCCAGCAAUAUUACGAGCU

>  <readout number>
-2.18

$$$$
>  <construct sequence>
GUACAGCAAUAUUACGAAUC

>  <readout number>
-1.18

$$$$
>  <construct sequence>
GUGGAGCAAUAUUACGUUAA

>  <readout number>
-2.41

$$$$
>  <construct sequence>
GGCCAGCAAUAUUACGUCGG

>  <readout number>
-1.9

$$$$
>  <construct sequence>
AAUGAGCAAUAUUACGGCGG

>  <readout number>
-2.69

$$$$
>  <construct sequence>
AGUGAGCAAUAUUACGAUAU

>  <readout number>
-2.22

$$$$
>  <construct sequence>
UUGCAGCAAUAUUACGGGAU

>  <readout number>
-1.68

$$$$
>  <construct sequence>
UUGCAGCAAUAUUACGCUUC

>  <readout number>
-2.76

$$$$
>  <construct sequence>
ACGAAGCAAUAUUACGAGUU

>  <readout number>
-1.91

$$$$
>  <construct sequence>
AUAAAGCAAUAUUACGAGGU

>  <readout number>
-1.9

$$$$
>  <construct sequence>
GUUGAGCAAUAUUACGUCAU

>  <readout number>
-2.44

$$$$
>  <construct sequence>
UUGCAGCAAUAUUACGAGCA

>  <readout number>
-0.7

$$$$
>  <construct sequence>
AGGCAGCAAUAUUACGGAAU

>  <readout number>
-0.844

$$$$
>  <construct sequence>
AGUCAGCAAUAUUACGGGGU

>  <readout number>
-1.5

$$$$
>  <construct sequence>
CUAUAGCAAUAUUACGUGAC

>  <readout number>
-0.55

$$$$
>  <construct sequence>
GUGAAGCAAUAUUACGUGGC

>  <readout number>
-2.41

$$$$
>  <construct sequence>
CGGUAGCAAUAUUACGCCAA

>  <readout number>
-2.6

$$$$
>  <construct sequence>
GAUGAGCAAUAUUACGUUGU

>  <readout number>
-1.69

$$$$
>  <construct sequence>
UCCUAGCAAUAUUACGAAUG

>  <readout number>
-2.76

$$$$
>  <construct sequence>
UUUCAGCAAUAUUACGUGUC

>  <readout number>
-2.04

$$$$
>  <construct sequence>
AACUAGCAAUAUUACGAACA

>  <readout number>
-0.611

$$$$
>  <construct sequence>
AAUGAGCAAUAUUACGUCGU

>  <readout number>
-1.18

$$$$
>  <construct sequence>
CCUGAGCAAUAUUACGUAGU

>  <readout number>
-1.21

$$$$
>  <construct sequence>
CCUCAGCAAUAUUACGAGUA

>  <readout number>
-2.38

$$$$
>  <construct sequence>
CAAAAGCAAUAUUACGCGGC

>  <readout number>
-2.21

$$$$
>  <construct sequence>
GCUAAGCAAUAUUACGGGCG

>  <readout number>
0.183

$$$$
>  <construct sequence>
UGCUAGCAAUAUUACGUGAA

>  <readout number>
-0.167

$$$$
>  <construct sequence>
GCCAAGCAAUAUUACGAGAA

>  <readout number>
-0.69

$$$$
>  <construct sequence>
UGUCAGCAAUAUUACGUACU

>  <readout number>
0.497

$$$$
>  <construct sequence>
CCAGAGCAAUAUUACGGUAA

>  <readout number>
-2.33

$$$$
>  <construct sequence>
GUCGAGCAAUAUUACGUUUA

>  <readout number>
-1.87

$$$$
>  <construct sequence>
GAUCAGCAAUAUUACGUUUU

>  <readout number>
0.149

$$$$
>  <construct sequence>
GAUUAGCAAUAUUACGAGUA

>  <readout number>
-0.695

$$$$
>  <construct sequence>
CAGGAGCAAUAUUACGAGAA

>  <readout number>
-0.522

$$$$
>  <construct sequence>
CCGUAGCAAUAUUACGUAGU

>  <readout number>
-3.05

$$$$
>  <construct sequence>
CGUGAGCAAUAUUACGAUGG

>  <readout number>
-0.139

$$$$
>  <construct sequence>
UUUCAGCAAUAUUACGGCGG

>  <readout number>
-0.833

$$$$
>  <construct sequence>
GUUCAGCAAUAUUACGCCUG

>  <readout number>
-0.936

$$$$
>  <construct sequence>
AUUUAGCAAUAUUACGCCAC

>  <readout number>
-1.36

$$$$
>  <construct sequence>
CUAAAGCAAUAUUACGAAUU

>  <readout number>
-3.9

$$$$
>  <construct sequence>
ACGAAGCAAUAUUACGGUGG

>  <readout number>
-2.56

$$$$
>  <construct sequence>
GGACAGCAAUAUUACGAUAG

>  <readout number>
-2.13

$$$$
>  <construct sequence>
ACGGAGCAAUAUUACGCAGG

>  <readout number>
-2.41

$$$$
>  <construct sequence>
ACCCAGCAAUAUUACGUUGA

>  <readout number>
-1.03

$$$$
>  <construct sequence>
AGAGAGCAAUAUUACGCCUU

>  <readout number>
-2.16

$$$$
>  <construct sequence>
CCGAAGCAAUAUUACGGUCA

>  <readout number>
-2.55

$$$$
>  <construct sequence>
GCUCAGCAAUAUUACGACAA

>  <readout number>
-1.42

$$$$
>  <construct sequence>
AACUAGCAAUAUUACGGUGC

>  <readout number>
-1.77

$$$$
>  <construct sequence>
GCUAAGCAAUAUUACGUGCG

>  <readout number>
0.103

$$$$
>  <construct sequence>
CACGAGCAAUAUUACGCCAU

>  <readout number>
-2.55

$$$$
>  <construct sequence>
UGUAAGCAAUAUUACGCUGU

>  <readout number>
-2.07

$$$$
>  <construct sequence>
CAGGAGCAAUAUUACGCCGG

>  <readout number>
-2.22

$$$$
>  <construct sequence>
CGCGAGCAAUAUUACGGCAG

>  <readout number>
-0.243

$$$$
>  <construct sequence>
AGUCAGCAAUAUUACGUGUC

>  <readout number>
-2.11

$$$$
>  <construct sequence>
CCAAAGCAAUAUUACGUUAU

>  <readout number>
-2.68

$$$$
>  <construct sequence>
ACGAAGCAAUAUUACGCACU

>  <readout number>
-0.172

$$$$
>  <construct sequence>
CGUCAGCAAUAUUACGCAAC

>  <readout number>
-2.47

$$$$
>  <construct sequence>
GAACAGCAAUAUUACGAACU

>  <readout number>
0.239

$$$$
>  <construct sequence>
GUCGAGCAAUAUUACGUACG

>  <readout number>
-2.44

$$$$
>  <construct sequence>
UCACAGCAAUAUUACGCUCU

>  <readout number>
-3.34

$$$$
>  <construct sequence>
GUCGAGCAAUAUUACGAAUG

>  <readout number>
-0.777

$$$$
>  <construct sequence>
CUGUAGCAAUAUUACGGGAG

>  <readout number>
-1.67

$$$$
>  <construct sequence>
CAUGAGCAAUAUUACGUCGG

>  <readout number>
-1.57

$$$$
>  <construct sequence>
AGCUAGCAAUAUUACGAUCC

>  <readout number>
0.559

$$$$
>  <construct sequence>
UUCAAGCAAUAUUACGGGCG

>  <readout number>
-0.629

$$$$
>  <construct sequence>
GAUGAGCAAUAUUACGUGCG

>  <readout number>
-1.8

$$$$
>  <construct sequence>
GUACAGCAAUAUUACGACCG

>  <readout number>
-0.419

$$$$
